assay: Pharmacokinetic study, IP 100 mg/kg, whole blood concentration; assay type: in vivo, male CD1 mice; settings: male, CD1, mouse, ip, 100 mg/kg, sampling time 4 hr, read-out: Concentration Mean

compound	concentration at 4 h, ng/mL
CC(C)N(C[C@H]1C[C@@H](n2cc(C#N)c3c(N)ncnc32)[C@H](O)[C@@H]1O)C1CC(CCc2nc3ccc(C(C)(C)C)cc3[nH]2)C1 (stereo partly shown)	7450

* * *

experiment: Pharmacokinetic study, IP 100 mg/kg, whole blood concentration; assay type: in vivo, male CD1 mice; conditions: male, CD1, mouse, ip, 100 mg/kg, sampling time 0.5 hr, read-out: Concentration Mouse#2
propertyMeasured: concentration at 0.5 hr (µg/mL)

compound	outputUnit	reading
CC(C)N(C[C@H]1C[C@@H](n2cc(C#N)c3c(N)ncnc32)[C@H](O)[C@@H]1O)C1CC(CCc2nc3ccc(C(C)(C)C)cc3[nH]2)C1 (stereo partly shown)	µg/mL	14.1

* * *

assay: Pharmacokinetic study, IP 100 mg/kg, whole blood concentration; assay type: in vivo, male CD1 mice; settings: male, CD1, mouse, ip, 100 mg/kg, sampling time 1 hr, read-out: Concentration Mouse#1

molecule	concentration at 1 h, ng/mL
CC(C)N(C[C@H]1C[C@@H](n2cc(C#N)c3c(N)ncnc32)[C@H](O)[C@@H]1O)C1CC(CCc2nc3ccc(C(C)(C)C)cc3[nH]2)C1 (stereo partly shown)	13100

* * *

assay: Pharmacokinetic study, IP 100 mg/kg, whole blood concentration; format: in vivo, male CD1 mice; settings: male, CD1, mouse, ip, 100 mg/kg, sampling time 0.083 hr, read-out: Concentration Mouse#3
propertyMeasured: concentration at 0.083 hr

compound	propertyMeasured	reading
CC(C)N(C[C@H]1C[C@@H](n2cc(C#N)c3c(N)ncnc32)[C@H](O)[C@@H]1O)C1CC(CCc2nc3ccc(C(C)(C)C)cc3[nH]2)C1 (stereo partly shown)	concentration at 0.083 hr	5500 ng/mL

* * *

Assay: Pharmacokinetic study, IP 100 mg/kg, whole blood concentration
Type: in vivo, male CD1 mice
Details: male, CD1, mouse, ip, 100 mg/kg, read-out: AUClast Mean
Protocol: Pharmacokinetic studies in CD1 mice using the compound of Example 1 (i.e. CC-006) (100 mg/kg, IP dose) were also performed.

molecule	outputUnit	AUC(0-t)
CC(C)N(C[C@H]1C[C@@H](n2cc(C#N)c3c(N)ncnc32)[C@H](O)[C@@H]1O)C1CC(CCc2nc3ccc(C(C)(C)C)cc3[nH]2)C1 (stereo partly shown)	ng·h/mL	84400

* * *

assay: Pharmacokinetic study, IP 100 mg/kg, whole blood concentration; type: in vivo, male CD1 mice; settings: male, CD1, mouse, ip, 100 mg/kg, sampling time 2 hr, read-out: Concentration Mouse#1

compound	concentration at 2 h
CC(C)N(C[C@H]1C[C@@H](n2cc(C#N)c3c(N)ncnc32)[C@H](O)[C@@H]1O)C1CC(CCc2nc3ccc(C(C)(C)C)cc3[nH]2)C1 (stereo partly shown) [Example 1]	10500 ng/mL

* * *

experiment: Pharmacokinetic study, IP 100 mg/kg, whole blood concentration; type: in vivo, male CD1 mice; conditions: male, CD1, mouse, ip, 100 mg/kg, sampling time 1 hr, read-out: Concentration Mean
propertyMeasured: concentration at 1 h (ng/mL)

compound	reading
CC(C)N(C[C@H]1C[C@@H](n2cc(C#N)c3c(N)ncnc32)[C@H](O)[C@@H]1O)C1CC(CCc2nc3ccc(C(C)(C)C)cc3[nH]2)C1 (stereo partly shown) [Example 1]	15200

* * *

assay: Pharmacokinetic study, IP 100 mg/kg, whole blood concentration; format: in vivo, male CD1 mice; settings: male, CD1, mouse, ip, 100 mg/kg, sampling time 4 hr, read-out: Concentration Mouse#2

molecule	outputUnit	concentration at 4 h
CC(C)N(C[C@H]1C[C@@H](n2cc(C#N)c3c(N)ncnc32)[C@H](O)[C@@H]1O)C1CC(CCc2nc3ccc(C(C)(C)C)cc3[nH]2)C1 (stereo partly shown)	ng/mL	5380

* * *

assay: Pharmacokinetic study, IP 100 mg/kg, whole blood concentration; assay type: in vivo, male CD1 mice; conditions: male, CD1, mouse, ip, 100 mg/kg, sampling time 0.25 hr, read-out: Concentration Mouse#1

compound	outputUnit	concentration at 0.25 hr
CC(C)N(C[C@H]1C[C@@H](n2cc(C#N)c3c(N)ncnc32)[C@H](O)[C@@H]1O)C1CC(CCc2nc3ccc(C(C)(C)C)cc3[nH]2)C1 (stereo partly shown)	ng/mL	12000

* * *

assay: Pharmacokinetic study, IP 100 mg/kg, whole blood concentration; format: in vivo, male CD1 mice; conditions: male, CD1, mouse, ip, 100 mg/kg, sampling time 8 hr, read-out: Concentration Mouse#1

compound	concentration at 8 h [ng/mL]
CC(C)N(C[C@H]1C[C@@H](n2cc(C#N)c3c(N)ncnc32)[C@H](O)[C@@H]1O)C1CC(CCc2nc3ccc(C(C)(C)C)cc3[nH]2)C1 (stereo partly shown) [Example 1]	957

* * *

Experiment: Pharmacokinetic study, IP 100 mg/kg, whole blood concentration
Format: in vivo, male CD1 mice
Details: male, CD1, mouse, ip, 100 mg/kg, sampling time 24 hr, read-out: Concentration Mouse#1
Procedure: Pharmacokinetic studies in CD1 mice using the compound of Example 1 (i.e. CC-006) (100 mg/kg, IP dose) were also performed.
propertyMeasured: concentration at 24 h (ng/mL)

compound	outputUnit	reading
CC(C)N(C[C@H]1C[C@@H](n2cc(C#N)c3c(N)ncnc32)[C@H](O)[C@@H]1O)C1CC(CCc2nc3ccc(C(C)(C)C)cc3[nH]2)C1 (stereo partly shown)	ng/mL	266

* * *

assay: Pharmacokinetic study, IP 100 mg/kg, whole blood concentration; type: in vivo, male CD1 mice; conditions: male, CD1, mouse, ip, 100 mg/kg, read-out: Terminal t1/2 Mouse#1 (converted)

compound	outputUnit	half-life
CC(C)N(C[C@H]1C[C@@H](n2cc(C#N)c3c(N)ncnc32)[C@H](O)[C@@H]1O)C1CC(CCc2nc3ccc(C(C)(C)C)cc3[nH]2)C1 (stereo partly shown)	h	4.64

* * *

assay: Pharmacokinetic study, IP 100 mg/kg, whole blood concentration; format: in vivo, male CD1 mice; conditions: male, CD1, mouse, ip, 100 mg/kg, sampling time 0.5 hr, read-out: Concentration Mouse#1

compound	concentration at 0.5 hr
CC(C)N(C[C@H]1C[C@@H](n2cc(C#N)c3c(N)ncnc32)[C@H](O)[C@@H]1O)C1CC(CCc2nc3ccc(C(C)(C)C)cc3[nH]2)C1 (stereo partly shown) [Example 1]	11100 ng/mL

* * *

Assay: Pharmacokinetic study, IP 100 mg/kg, whole blood concentration
Format: in vivo, male CD1 mice
Conditions: male, CD1, mouse, ip, 100 mg/kg, sampling time 1 hr, read-out: Concentration Mouse#3
Protocol: Pharmacokinetic studies in CD1 mice using the compound of Example 1 (i.e. CC-006) (100 mg/kg, IP dose) were also performed.
propertyMeasured: concentration at 1 h (ng/mL)

compound	outputUnit	reading
CC(C)N(C[C@H]1C[C@@H](n2cc(C#N)c3c(N)ncnc32)[C@H](O)[C@@H]1O)C1CC(CCc2nc3ccc(C(C)(C)C)cc3[nH]2)C1 (stereo partly shown)	ng/mL	17500

* * *

Test: Pharmacokinetic study, IP 100 mg/kg, whole blood concentration
Format: in vivo, male CD1 mice
Settings: male, CD1, mouse, ip, 100 mg/kg, sampling time 24 hr, read-out: Concentration Mouse#3
Protocol: Pharmacokinetic studies in CD1 mice using the compound of Example 1 (i.e. CC-006) (100 mg/kg, IP dose) were also performed.
propertyMeasured: concentration at 24 h (µg/mL)

compound	reading
CC(C)N(C[C@H]1C[C@@H](n2cc(C#N)c3c(N)ncnc32)[C@H](O)[C@@H]1O)C1CC(CCc2nc3ccc(C(C)(C)C)cc3[nH]2)C1 (stereo partly shown)	0.531

* * *

experiment: Pharmacokinetic study, IP 100 mg/kg, whole blood concentration; assay type: in vivo, male CD1 mice; conditions: male, CD1, mouse, ip, 100 mg/kg, sampling time 2 hr, read-out: Concentration Mouse#2
propertyMeasured: concentration at 2 h (ng/mL)

compound	reading
CC(C)N(C[C@H]1C[C@@H](n2cc(C#N)c3c(N)ncnc32)[C@H](O)[C@@H]1O)C1CC(CCc2nc3ccc(C(C)(C)C)cc3[nH]2)C1 (stereo partly shown)	11300

* * *

experiment: Pharmacokinetic study, IP 100 mg/kg, whole blood concentration; assay type: in vivo, male CD1 mice; conditions: male, CD1, mouse, ip, 100 mg/kg, read-out: Cmax Mouse#3

molecule	Cmax
CC(C)N(C[C@H]1C[C@@H](n2cc(C#N)c3c(N)ncnc32)[C@H](O)[C@@H]1O)C1CC(CCc2nc3ccc(C(C)(C)C)cc3[nH]2)C1 (stereo partly shown) [Example 1]	17800 ng/mL
